Origin of the recorded values: PubChem BioAssay AID2060894

System: K12877-001-R-J1-PDC complex spheroid viability
Assay: Anticancer human tumor K12877-001-R-J1-PDC patient-derived lung adenocarcinoma cell line growth inhibition [RAS]
Conditions: second compound 0.3 µM; first compound 0.0316 µM; stronger effect = lower value
Examples of compounds with documented viability, T/C follow.
Report the value in % with no unit label.

NC1c2ccccc2OC12CCN(c1cnc3c(N4CCCc5ncccc54)n[nH]c3n1)CC2 (configuration not stated) + CCn1c(-c2cccnc2C(C)OC)c2c3cc(ccc31)N1CCOC(CC(NC(=O)C(C(C)C)N(C)C(=O)C3(F)CCN(C(=O)C#CC(C)(C)N(C)C)CC3)C(=O)N3CCCC(N3)C(=O)OCC(C)(C)C2)C1 : 58.3
CCN1CCN(Cc2ccc(Nc3ncc(F)c(-c4cc(F)c5nc(C)n(C(C)C)c5c4)n3)nc2)CC1 + CCn1c(-c2cccnc2C(C)OC)c2c3cc(ccc31)N1CCOC(CC(NC(=O)C(C(C)C)N(C)C(=O)C3(F)CCN(C(=O)C#CC(C)(C)N(C)C)CC3)C(=O)N3CCCC(N3)C(=O)OCC(C)(C)C2)C1 : 59.3
CC(Nc1ccc2c(c1)OCCn1cc(N3C(=O)OCC3C(F)F)nc1-2)C(N)=O (configuration not stated) + CCn1c(-c2cccnc2C(C)OC)c2c3cc(ccc31)N1CCOC(CC(NC(=O)C(C(C)C)N(C)C(=O)C3(F)CCN(C(=O)C#CC(C)(C)N(C)C)CC3)C(=O)N3CCCC(N3)C(=O)OCC(C)(C)C2)C1 : 65.5
CC(=O)OC12COC1CC(O)C1(C)C(=O)C(O)C3=C(C)C(OC(=O)C(O)C(NC(=O)OC(C)(C)C)c4ccccc4)CC(O)(C(OC(=O)c4ccccc4)C21)C3(C)C (configuration not stated) + CCn1c(-c2cc(N3CCN(C)CC3)cnc2C(C)OC)c2c3cc(ccc31)-c1csc(n1)CC(NC(=O)C1CC1C)C(=O)N1CCCC(N1)C(=O)OCC(C)(C)C2 : 3.57
Nc1ccn(C2OC(CO)C(O)C2(F)F)c(=O)n1 (configuration not stated) + CCn1c(-c2cccnc2C(C)OC)c2c3cc(ccc31)N1CCOC(CC(NC(=O)C(C(C)C)N(C)C(=O)C3(F)CCN(C(=O)C#CC(C)(C)N(C)C)CC3)C(=O)N3CCCC(N3)C(=O)OCC(C)(C)C2)C1 : 3.46
CC(C)NCC(C(=O)N1CCN(c2ncnc3c2C(C)CC3O)CC1)c1ccc(Cl)cc1 (configuration not stated) + CCn1c(-c2cccnc2C(C)OC)c2c3cc(ccc31)N1CCOC(CC(NC(=O)C(C(C)C)N(C)C(=O)C3(F)CCN(C(=O)C#CC(C)(C)N(C)C)CC3)C(=O)N3CCCC(N3)C(=O)OCC(C)(C)C2)C1 : 57.8

Pending compound:
Reported viability, T/C, compound CC1(O)CCCC1n1c(=O)c(C(F)F)cc2cnc(NC3CCN(S(C)(=O)=O)CC3)nc21 (configuration not stated) + CCn1c(-c2cccnc2C(C)OC)c2c3cc(ccc31)N1CCOC(CC(NC(=O)C(C(C)C)N(C)C(=O)C3(F)CCN(C(=O)C#CC(C)(C)N(C)C)CC3)C(=O)N3CCCC(N3)C(=O)OCC(C)(C)C2)C1 : ____
68.5

----------
Tested on: K12877-001-R-J1-PDC complex spheroid viability
Test: Anticancer human tumor K12877-001-R-J1-PDC cell line growth inhibition [RAS];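 further: tumour cells co-cultured with HUVEC and mesenchymal stem cells in spheroids; spheroids exposed to agents for one week before readout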
Conditions: second compound 0.1 µM; first compound 0.316 µM; stronger effect = lower value
Examples of compounds with documented viability, T/C follow.

C=CC(=O)Nc1cc(Nc2nccc(-c3cn(C)c4ccccc34)n2)c(OC)cc1N(C)CCN(C)C + C=CC(=O)N1CCN(c2nc(OCC3CCCN3C)nc3c(F)c(-c4nc(N)cc(C)c4C(F)(F)F)c(Cl)cc23)C(C)C1 : 76.2%
NC1c2ccccc2OC12CCN(c1cnc3c(N4CCCc5ncccc54)n[nH]c3n1)CC2 (stereo not drawn) + C#Cc1c(F)ccc2cc(O)cc(-c3ncc4c(N5CC6CCC(C5)N6)nc(OCC56CCCN5CC(F)C6)nc4c3F)c12 : 90%

Reported viability, T/C, compound CC(C)NCC(C(=O)N1CCN(c2ncnc3c2C(C)CC3O)CC1)c1ccc(Cl)cc1 (stereo not drawn) + C#Cc1c(F)ccc2cc(O)cc(-c3ncc4c(N5CC6CCC(C5)N6)nc(OCC56CCCN5CC(F)C6)nc4c3F)c12 : ____
87.7%
